cell viability values, listed per item
Test system: U2OS
Test: cell viability relative to DMSO; higher = less toxic
Conditions: 72 h; 10000 nM
Could you write the number and then its unit?

// solved cases for cell viability follow
1) CCCCc1oc2ccc(NS(C)(=O)=O)cc2c1C(=O)c1ccc(OCCCN(CCCC)CCCC)cc1
23%
2) C/C(=N\NC(=O)C(NC(=O)c1ccccc1)c1n[nH]c(=O)c2ccccc12)c1cccc(Br)c1 (centres undefined)
100%

Task: Entry "CO[C@H]1CC=C2CCN3CCC4=C(CC(=O)OC4)[C@]23C1" has what cell viability?
Result: 108%

Task: Entry NC(=O)N1c2ccccc2CC(=O)c2ccccc21 [oxcarbazepine] has what cell viability?
Result: 99.1%

Task: Entry "CCN(CC)C(=O)/C(C#N)=C/c1cc(O)c(O)c([N+](=O)[O-])c1" has what cell viability?
Result: 99.7%

Task: Entry "COC(=O)Nc1ccc(-c2nc(N3CCOCC3)c3cnn(C4CCN(Cc5cccnc5)CC4)c3n2)cc1" has what cell viability?
Result: 19%

Task: Entry "C[C@H](Nc1cc(NS(=O)(=O)N2CCC2)nc(SCc2cccc(F)c2F)n1)[C@@H](O)CO" has what cell viability?
Result: 94.5%

Task: Entry "Cc1cccc(C(=O)NCN2CCN(c3ccccc3C#N)CC2)c1" has what cell viability?
Result: 101%

Task: Entry "CC(=O)CCCCn1c(=O)c2c(ncn2C)n(C)c1=O" has what cell viability?
Result: 100%

----------
cell viability values, listed per item
Tested on: U2OS
Assay: cell viability relative to DMSO; higher = less toxic
Conditions: 72 h; 1 nM
Give just the numeric value; % need not be written.

// solved cases for cell viability follow
1) O=C(O[C@@H]1Cc2c(O)cc(O)cc2O[C@@H]1c1cc(O)c(O)c(O)c1)c1cc(O)c(O)c(O)c1 [epigallocatechin-gallate-(-)]
100
2) Cc1cc(-c2ccccc2)nnc1NCCN1CCOCC1
104
3) CC(C)(C)c1ccc(C(=O)CCCN2CCC(OC(c3ccccc3)c3ccccc3)CC2)cc1
99

Task: Any idea what cell viability came out for "COc1cccc(C(=O)CCN[C@@H](C)[C@H](O)c2ccccc2)c1" on U2OS?
Result: 97.8

----------
Test system: Calu-3
Test: cell viability relative to DMSO; higher = less toxic
Settings: 72 h; 100 nM
cell viability values, listed per item
Give just the numeric value; % need not be written.

1) O=C1C2CC=CCC2C(=O)N1SC(Cl)(Cl)Cl (centres undefined) [captan]
102
2) COc1ccc2[nH]c(I)c(CCNC(C)=O)c2c1 [2-iodomelatonin]
103
3) O=c1ncccn1[C@@H]1O[C@H](CO)[C@@H](O)[C@H]1O [zebularine]
85.9
4) CC(=O)N1CCN(C)CC1 [1-acetyl-4-methylpiperazine]
95

Task: Entry CCCNC(C)(C)COC(=O)c1ccccc1 [meprylcaine] has what cell viability?
Result: 105

Task: Entry CC(C)(C)c1ccc(C(=O)CCCN2CCC(OC(c3ccccc3)c3ccccc3)CC2)cc1 [ebastine] has what cell viability?
Result: 106

Task: Entry CCOCOC[C@H](C[C@H](C)C(=O)NO)NC(=O)c1ccc(Oc2ccccc2)cc1 [ONO-4817] has what cell viability?
Result: 97.6

Task: Entry CCN(CCO)CCCOc1ccc2c(Nc3cc(CC(=O)Nc4cccc(F)c4)[nH]n3)ncnc2c1 [barasertib-HQPA] has what cell viability?
Result: 97.2

Task: Entry "COc1ccc(CN2C(=O)C(=O)c3cc(OC(F)(F)F)ccc32)cc1" has what cell viability?
Result: 110

Task: Entry Cc1cc(-c2ccccc2)nnc1NCCN1CCOCC1 [minaprine] has what cell viability?
Result: 99.1

----------
Test system: HepG2
Test: relative viability EC50 (midpoint between 100% and the lowest measured viability); higher = less toxic
Details: 72 h
relative viability EC50 values, listed per item

// solved cases for relative viability EC50 follow
1. Fc1ccc(-c2cncc(CN3CCN(c4cccc5c4OCCO5)CC3)c2)cc1
> 10 µM
2. O=C1C2CC=CCC2C(=O)N1SC(Cl)(Cl)Cl (configuration not stated)
> 10 µM
3. CCCC(CCC)C(=O)NCc1ccc2c(cnn2-c2ccccc2OC)c1
> 10 µM
4. CN(C(=O)Cc1ccc(Cl)c(Cl)c1)[C@H](CN1CCCC1)c1ccccc1
> 10 µM
5. Cc1cccc(C(=O)NCN2CCN(c3ccccc3C#N)CC2)c1
> 10 µM
6. CC(=O)[O-].CC(=O)[O-].N.NC1CCCCC1.[Cl-].[Cl-].[Pt+4]
1.16 µM
7. O[C@H]1CC[C@H](Nc2nc(-c3ccccc3)nc3[nH]ccc23)CC1
> 10 µM
8. CC[C@@H]1/C=C(\C)C[C@H](C)C[C@H](OC)[C@H]2O[C@@](O)(C(=O)C(=O)N3CCCC[C@H]3C(=O)O[C@H](/C(C)=C/[C@@H]3CC[C@@H](O)[C@H](OC)C3)[C@H](C)[C@@H](O)CC1=O)[C@H](C)C[C@@H]2OC
> 10 µM
9. CCCC(=O)Nc1ccc(OCC(O)CNC(C)C)c(C(C)=O)c1 (configuration not stated)
> 10 µM
10. O=c1c(-c2ccc(O)cc2)coc2cc(O)cc(O)c12
> 10 µM

// below: relative viability EC50 requested for another compound
Task: Entry "Cc1c(N)c(=O)n(-c2ccccc2)n1C" has what relative viability EC50?
Result: > 10 µM

----------
System: Vero E6
Test: cell viability relative to DMSO; higher = less toxic
Details: 72 h; 100 nM
cell viability values, listed per item
Give just the numeric value; % need not be written.

// solved cases for cell viability follow
1) CCc1cccc2c3c([nH]c12)C(CC)(CC(=O)O)OCC3 (stereo not given) [etodolac]
93.7
2) O=c1[nH]c(=O)n([C@H]2C[C@H](O)[C@@H](CO)O2)cc1Br [broxuridine]
99
3) CC1CCN(CC[C@H]2CCCN2S(=O)(=O)c2cccc(O)c2)CC1
96.8

// below: cell viability requested for another compound
Task: Entry CCCNC(C)(C)COC(=O)c1ccccc1 [meprylcaine] has what cell viability?
Result: 91.8

----------
System: Calu-3
Test: relative viability EC50 (midpoint between 100% and the lowest measured viability); higher = less toxic
Conditions: 72 h
relative viability EC50 values, listed per item

1. CCN(CC)C(=O)/C(C#N)=C/c1cc(O)c(O)c([N+](=O)[O-])c1 [entacapone]
> 10 µM
2. CCCCc1ncc(/C=C(\Cc2cccs2)C(=O)O)n1Cc1ccc(C(=O)O)cc1 [eprosartan]
> 10 µM

Task: Entry CC[C@@H]1/C=C(\C)C[C@H](C)C[C@H](OC)[C@H]2O[C@@](O)(C(=O)C(=O)N3CCCC[C@H]3C(=O)O[C@H](/C(C)=C/[C@@H]3CC[C@@H](O)[C@H](OC)C3)[C@H](C)[C@@H](O)CC1=O)[C@H](C)C[C@@H]2OC [ascomycin] has what relative viability EC50?
Result: > 10 µM

----------
Tested on: U2OS
Experiment: cell viability relative to DMSO; higher = less toxic
Conditions: 72 h; 1 nM
reportedProperty: cell viability

1. CCOCOC[C@H](C[C@H](C)C(=O)NO)NC(=O)c1ccc(Oc2ccccc2)cc1
98.1%
2. CCS(=O)(=O)N1CCN(c2ccc(Nc3ncc(C(N)=O)c(NC4CC4)n3)cc2)CC1
95.9%
3. CC(=O)N(CC(C)C(=O)O)c1c(I)cc(I)c(N)c1I (stereo not drawn)
98.2%

Task: Any idea what cell viability came out for "COc1cc2ncnc(Nc3cccc(Cl)c3)c2cc1OC" on U2OS?
Result: 103%

Task: Any idea what cell viability came out for "CCc1cc(O)c(Oc2ccc(C(N)=O)cc2F)cc1F" on U2OS?
Result: 104%

Task: Any idea what cell viability came out for "CN(C(=O)Cc1ccc(Cl)c(Cl)c1)[C@H](CN1CCCC1)c1ccccc1" on U2OS?
Result: 96.9%

Task: Any idea what cell viability came out for CCc1cccc2c3c([nH]c12)C(CC)(CC(=O)O)OCC3 (stereo not drawn) on U2OS?
Result: 95.7%

Task: Any idea what cell viability came out for "N#CC1(c2ccc(NC(=O)c3cccnc3NCc3ccncc3)cc2)CCCC1" on U2OS?
Result: 97.4%

Task: Any idea what cell viability came out for "COc1ccc2[nH]c(I)c(CCNC(C)=O)c2c1" on U2OS?
Result: 95.3%

Task: Any idea what cell viability came out for "O=C(Nc1cccc(Br)c1)c1cccc(S(=O)(=O)N2CCCCCC2)c1" on U2OS?
Result: 97.7%

Task: Any idea what cell viability came out for C[C@H](Oc1cc(-c2cnn(C3CCNCC3)c2)cnc1N)c1c(Cl)ccc(F)c1Cl [crizotinib-(S)] on U2OS?
Result: 98.3%

Task: Any idea what cell viability came out for CC(C)[N+](C)(CCC(C(N)=O)(c1ccccc1)c1ccccc1)C(C)C [isopropamide-iodide] on U2OS?
Result: 104%

Task: Any idea what cell viability came out for "O=C(Nc1cnc(Cl)nc1)c1ccc(F)c(F)c1" on U2OS?
Result: 102%

Task: Any idea what cell viability came out for "CC[C@@H]1/C=C(\C)C[C@H](C)C[C@H](OC)[C@H]2O[C@@](O)(C(=O)C(=O)N3CCCC[C@H]3C(=O)O[C@H](/C(C)=C/[C@@H]3CC[C@@H](O)[C@H](OC)C3)[C@H](C)[C@@H](O)CC1=O)[C@H](C)C[C@@H]2OC" on U2OS?
Result: 96%

Task: Any idea what cell viability came out for "OCCNCCCOc1cccc(Cl)c1Cl" on U2OS?
Result: 105%

Task: Any idea what cell viability came out for "CCN(CC)CCO[C@H]1CC[C@@]2(C)C(=CC[C@@H]3[C@@H]2CC[C@]2(C)C(=O)CC[C@@H]32)C1" on U2OS?
Result: 99.4%

Task: Any idea what cell viability came out for "Cc1cccc(C(=O)NCN2CCN(c3ccccc3C#N)CC2)c1" on U2OS?
Result: 98.1%

Task: Any idea what cell viability came out for "CO[C@@H]1[C@H](N(C)C(=O)c2ccccc2)C[C@H]2O[C@]1(C)n1c3ccccc3c3c4c(c5c6ccccc6n2c5c31)C(=O)NC4" on U2OS?
Result: 102%
